# assay_comment: protein stability index of a GFP-peptide fusion (GPS, HEK-293T) (PSI 1-6); higher = more stable;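 also: 24-mer peptide tiles fused after GFP, lentivirally expressed, FACS-sorted into six equal bins by GFP/DsRed ratio, decoded by Illumina sequencing, PSI is the read-weighted mean bin number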
# test_conditions: treatment: MLN4924 1 uM, 8 h; c terminus: a fixed tail appended
Measured protein stability index accompanies every entry in the list below.

- record_sequence: "ICEATQIIDYLEQTFLDERTPRLM [GDAP1]"
  protein stability index: 2.45
- record_sequence: "WEIAKAEVEKRGINGSEGDGAEIA [DYNC2LI1]"
  protein stability index: 5.18
- record_sequence: "ERRGGLPPLPLHPGGDQGGPPVGP [WAS]"
  protein stability index: 5.22
- record_sequence: "RLCTWLLALSPDLSLSNATVLTRS [FANCE]"
  protein stability index: 3.02
- record_sequence: "ENVSVEMLLRKFAESKGTGREKPG [FCHO1]"
  protein stability index: 4.23
- record_sequence: "GAVIEVFGHRFIILDTDEYVLKYM [EFHC1]"
  protein stability index: 2.27
- record_sequence: "PAVEACENRRKVLYQRAPRNIHRH [TCF25]"
  protein stability index: 3.81
- record_sequence: "ADLRTNHTLNNLVEKLLREEAEGA [TRIM35]"
  protein stability index: 4.43
- record_sequence: "GKSLLLMTRNDVLTGLQLKLGPAL [SAMD13]"
  protein stability index: 2.26
- record_sequence: "LETQAQVCQALAQVDGGANFSVDR [CPOX]"
  protein stability index: 4.96
- record_sequence: "IAIVSVMVILISIVIFCLETLPEL [KCNA1]"
  protein stability index: 2.44
- record_sequence: "KTVCGYYTSAGTYGLDSVKKKCLE [GMCL1]"
  protein stability index: 2.97
- record_sequence: "PGAHGRFMPQGAGGHTREARIQTL [RSAD1]"
  protein stability index: 3.67
- record_sequence: "KKHEFLTSVLDALSTDMVHAASDP [SMOC2]"
  protein stability index: 3.46
- record_sequence: "HVRHMAYQLCHALRFLHENQLTHT [CLK3]"
  protein stability index: 3.01
- record_sequence: "NKKGFWSYGPVILVVLVVAVVASS [TOR1AIP2]"
  protein stability index: 1.83
- record_sequence: "DLHRQFPFHEMFVSRGGHGQQDLF [TBC1D10A]"
  protein stability index: 2.8
- record_sequence: "PETHIFTAPEEVPKVSDQALVSAH [DMRTC1]"
  protein stability index: 4.92
- record_sequence: "PIGCDGVLFSTHTLDKCGICQGDG [ADAMTSL2]"
  protein stability index: 3.79
- record_sequence: "EAEAADSGAVGARRFLLCLYLVGF [MFSD9]"
  protein stability index: 2.65
- record_sequence: "TALALEPDAIRSRSNTLRERSQVR [PCDHGC5]"
  protein stability index: 4.69
- record_sequence: "RSLFSSVPSKPPMSLEPQNGTYAG [ANKRD40]"
  protein stability index: 4.29
- record_sequence: "RHTSPVFSPANPESSMEDCLAHLG [BCL2L13]"
  protein stability index: 4.31
- record_sequence: "MTVVRMDASVQPGPFRTLLQFLYT [RHOBTB1]"
  protein stability index: 2.25
- record_sequence: "EELEDSKALLYLPIAPEVEDPEEN [RBBP5]"
  protein stability index: 5.24
- record_sequence: "EILLDFVYTETVHVTVENVQELLP [KLHL12]"
  protein stability index: 2.4
- record_sequence: "VLSHIMFDGPEAWGVCEPQREEVE [ZER1]"
  protein stability index: 3.49
- record_sequence: "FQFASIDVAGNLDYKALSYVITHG [MYL5]"
  protein stability index: 2.29
- record_sequence: "RVYPKCTWLTTPKSTWPRYSKPGL [TCF25]"
  protein stability index: 2.46
- record_sequence: "HRTVKLVPWSQCLQNFLLHGTKNV [WSB1]"
  protein stability index: 1.99
- record_sequence: "SLPPPAGLNSSWVELPMNSSNGND [BNIP3L]"
  protein stability index: 4.88
- record_sequence: "VRKVPPGYSIKVFDFERSGLQHAP [SMAD6]"
  protein stability index: 2.63
- record_sequence: "KAQQEFAAGVFSNPAVRTAAANAA [SCAMP3]"
  protein stability index: 4.11
- record_sequence: "QALGTHRPVNKLAELQCEVAALRE [RASAL3]"
  protein stability index: 3.75
- record_sequence: "KFGRTCLHAAAAGGNVECIKLLQS [ANKRD44]"
  protein stability index: 2.55
- record_sequence: "ELEKSGHGQAGQRQDPRPHGPQLP [ZBED2]"
  protein stability index: 5.28
- record_sequence: "QPGLSFLNLGSGTGYLSSMVGLIL [PCMTD2]"
  protein stability index: 2.28
- record_sequence: "LTGFSWRGGSDPETTGIQIWSEVF [ATL3]"
  protein stability index: 1.59
- record_sequence: "LEFRSFWELIGEAAKSVKLERPVR [S100A14]"
  protein stability index: 2.33
- record_sequence: "TFFPVALKKHGPICQKTATKKRKT [ZC2HC1A]"
  protein stability index: 3.32
- record_sequence: "RPSRSGAQQLEEEGPMEEEEAQPM [EID1]"
  protein stability index: 5.53
- record_sequence: "TNHGYRVQVENPERFSSAPCLLGS [TRIM35]"
  protein stability index: 3.29
- record_sequence: "PESETSILLSWTPPRSDTIANYEL [PTPRD]"
  protein stability index: 2.96
- record_sequence: "PRKVSTCTDHELENHSMYCVQCKM [TRIM9]"
  protein stability index: 4.74
- record_sequence: "VYDNEKKLQLQLNETKSQAFVSNS [PLD5]"
  protein stability index: 4.33
